Reported values of IC50 for individual entries
- experimental system: Estrogen receptor beta (Homo sapiens)
- Sequence (Q92731 whole entry): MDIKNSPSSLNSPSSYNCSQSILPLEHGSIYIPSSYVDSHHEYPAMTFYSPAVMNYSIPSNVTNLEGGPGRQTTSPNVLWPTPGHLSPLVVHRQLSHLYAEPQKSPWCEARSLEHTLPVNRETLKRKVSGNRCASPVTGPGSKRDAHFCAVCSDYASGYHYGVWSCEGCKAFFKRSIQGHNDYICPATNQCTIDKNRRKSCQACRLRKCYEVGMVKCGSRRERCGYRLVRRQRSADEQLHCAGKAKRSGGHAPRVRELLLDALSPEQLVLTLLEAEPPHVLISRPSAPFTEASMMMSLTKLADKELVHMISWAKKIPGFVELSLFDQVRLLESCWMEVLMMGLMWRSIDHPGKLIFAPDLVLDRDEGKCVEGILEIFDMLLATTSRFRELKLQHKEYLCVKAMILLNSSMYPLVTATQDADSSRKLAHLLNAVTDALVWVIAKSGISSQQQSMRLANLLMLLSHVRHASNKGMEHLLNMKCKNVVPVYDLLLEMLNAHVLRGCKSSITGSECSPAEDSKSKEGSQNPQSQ
- experiment summary: blockers of SRC-3 recruitment to ERβ – biochemical, ELISA, streptavidin-HRP readout, orthogonal assay, confirmation (AID 1060)

[
  {
    "entry smiles": "O=C(NCCO)c1ccc2nc(-c3ccco3)c(-c3ccco3)nc2c1",
    "IC50": "11.4 µM (not active)"
  },
  {
    "entry smiles": "Oc1ccc(-c2nc(-c3ccc(O)c(O)c3)cs2)cc1",
    "IC50": "90.7 µM (not active)"
  },
  {
    "entry smiles": "CC(=O)Nc1ccc(/N=C/c2nc(-c3ccc(C)cc3)oc2O)cc1",
    "IC50": "21.6 µM (not active)"
  },
  {
    "entry smiles": "CCOC(=O)Cc1csc(NC(=O)Cc2cccs2)n1",
    "IC50": "3.22 µM (not active)"
  },
  {
    "entry smiles": "COc1cc2c3c(c1)/C(=C1/SC(NC(C)=O)=NC1=O)C(=O)N3C(C)(C)C=C2C",
    "IC50": "96.2 µM (not active)"
  }
]

Every entry's value here was drawn from ChEMBL document CHEMBL1201862.
